Target of assay: Cytochrome P450 2C19 (Homo sapiens)
Measurement notes: Cytochrome P450 Family 2 Subfamily C Member 19 (CYP2C19) small molecule antagonists: luciferase reporter qHTS assay (AID 1671197); also: nearly all actives have a fitted effect of over 65% in size
Run parameters: P450-Glo CYP2C19 enzyme, luciferin luminescence, 1 h; series mostly up to 115 µM
Records with an inconclusive call do not appear. Active and inactive are the calls of the source. Calls follow the shape of the dose curve; as a rule, active = well fitted inhibition curve with a large enough effect in the repeat runs; inconclusive = weak or mixed curves; inactive = no such curve, though single readings can be large or run the other way.
Please reply with one of these outcomes: yes (1) = active, no (0) = inactive

Example entries and their recorded answers appear below.
# Compound, Group label
measured = [
    ("O=C(CC(=O)C(F)(F)F)c1ccccc1", "yes (1)"),
    ("CC(C)(CO)[C@@H](O)C(=O)NCCC(=O)O", "no (0)"),
    ("NNS(=O)(=O)c1ccc(Oc2ccc(S(=O)(=O)NN)cc2)cc1", "yes (1)"),
]

*Q* Just curious, what result did CC(=O)Oc1cc(C(C)C)c(OCCN(C)C)cc1C get here?
*A* no (0)

*Q* Just curious, what result did CCOc1ccc(NS(=O)(=O)c2ccc(N)cc2)nn1 get here?
*A* yes (1)

*Q* Just curious, what result did CCCN(CCC)C(=O)C(CCC(=O)O)NC(=O)c1ccccc1 (stereo unspecified) get here?
*A* no (0)

*Q* Just curious, what result did Oc1ccccc1F get here?
*A* no (0)

*Q* Just curious, what result did Cc1ccc(C=O)s1 get here?
*A* no (0)

*Q* Just curious, what result did CN1CCN(C2=Nc3cc(F)ccc3Cc3ccccc32)CC1 get here?
*A* no (0)

*Q* Just curious, what result did CCc1cc2cc(OC)c(OC)cc2c(Cc2ccccc2)n1 get here?
*A* yes (1)

*Q* Just curious, what result did O=C(C(Cl)Cl)N1CCOC12CCCCC2 get here?
*A* yes (1)

*Q* Just curious, what result did CCOC(=O)COc1ccc2c(c1)CC(NCC(O)c1cccc(Cl)c1)CC2 (stereo unspecified) get here?
*A* yes (1)

*Q* Just curious, what result did FC(F)(F)C(Cl)(Cl)Cl get here?
*A* no (0)

*Q* Just curious, what result did CCCCCCCCc1ccc(S(=O)(=O)O)cc1 get here?
*A* no (0)

*Q* Just curious, what result did NC/C=C/C(=O)O get here?
*A* no (0)

*Q* Just curious, what result did O=C1N(c2ccccc2)c2ccccc2C1(Cc1ccncc1)Cc1ccncc1 get here?
*A* yes (1)

*Q* Just curious, what result did Cc1ccc(C)c(N)c1 get here?
*A* yes (1)

*Q* Just curious, what result did Cc1nc(-c2ccccn2)ncc1C(=O)Nn1cc(C)c2cc(F)ccc21 get here?
*A* yes (1)

*Q* Just curious, what result did CCCCCCn1c(=O)c2c(ncn2C)n(C)c1=O get here?
*A* yes (1)

*Q* Just curious, what result did C=CCCC=C get here?
*A* no (0)

*Q* Just curious, what result did O=C1CCCCCCCCCCC(=O)OCCO1 get here?
*A* yes (1)

* * *

Target of assay: Cytochrome P450 1A2 (Homo sapiens) (UniProt P05177)
Sequence (P05177 whole entry, looked up): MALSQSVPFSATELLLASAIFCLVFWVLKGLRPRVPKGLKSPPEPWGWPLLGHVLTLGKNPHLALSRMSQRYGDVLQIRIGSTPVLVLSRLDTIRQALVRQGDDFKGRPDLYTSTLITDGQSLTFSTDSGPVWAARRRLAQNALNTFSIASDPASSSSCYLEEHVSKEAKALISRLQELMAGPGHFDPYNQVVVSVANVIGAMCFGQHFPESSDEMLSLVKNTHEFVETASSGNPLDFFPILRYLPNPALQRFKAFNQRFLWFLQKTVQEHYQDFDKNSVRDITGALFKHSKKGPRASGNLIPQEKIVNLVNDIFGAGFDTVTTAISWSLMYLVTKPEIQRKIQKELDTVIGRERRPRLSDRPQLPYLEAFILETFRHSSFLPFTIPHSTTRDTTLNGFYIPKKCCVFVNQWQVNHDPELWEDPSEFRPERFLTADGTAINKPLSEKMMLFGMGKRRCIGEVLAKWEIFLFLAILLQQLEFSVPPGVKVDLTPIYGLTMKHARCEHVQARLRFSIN
Measurement notes: Cytochrome P450 Family 1 Subfamily A Member 2 (CYP1A2) small molecule antagonists: luciferase reporter qHTS assay (AID 1671199); also: nearly all actives have a fitted effect of over 50% in size
Run parameters: P450-Glo CYP1A2 enzyme, luciferin luminescence, 1 h; series mostly up to 53 µM
Results filed as inconclusive are left out. Activity calls are given as the source filed them. Calls follow the shape of the dose curve; as a rule, active = well fitted inhibition curve with a large enough effect in the repeat runs; inconclusive = weak or mixed curves; inactive = no such curve, though single readings can be large or run the other way.
Please reply with one of these outcomes: 1 = active, 0 = inactive

# Molecule, Target of assay, Group label
measured = [
    ("O=C(O)CN(CCN(CC(=O)O)CC(=O)O)CCN(CC(=O)O)CC(=O)O", "Cytochrome P450 1A2 (Homo sapiens) (UniProt P05177)", 0),
]

*Q* Just curious, what result did CCCCCCC get here?
*A* 0

*Q* Just curious, what result did O=C(O)c1ccccc1Nc1cc(Cl)ccc1C(=O)O get here?
*A* 0

*Q* Just curious, what result did C[C@]12CCC(=O)C=C1CC[C@@H]1[C@@H]2CC[C@@]2(C)[C@H]1CC[C@]2(O)C(=O)CO get here?
*A* 0

*Q* Just curious, what result did O=c1oc2c(O)c(O)cc3c(=O)oc4c(O)c(O)cc1c4c23 get here?
*A* 0

*Q* Just curious, what result did CCOc1ccc(NS(=O)(=O)c2ccc(N)cc2)nn1 get here?
*A* 0

* * *

Measurement notes: A CellTox Green Cytotoxicity Assay to monitor cytotoxicity in HEK293 cells - 40 hour (AID 1224871); also: nearly all actives have a fitted effect of over 45% in size
Run parameters: CellTox Green fluorescence; series mostly up to 76.8 µM
Results filed as inconclusive are left out. Active and inactive are the calls of the source. Calls follow the shape of the dose curve; as a rule, active = well fitted activation curve with a large enough effect in the repeat runs; inconclusive = weak or mixed curves; inactive = flat fitted curve, though single readings scatter.
Please reply with one of these outcomes: 1 = active, 0 = inactive

# Compound, Group label
measured = [
    ("O=C1CCC(C2CCCCC2)CC1", 1),
    ("CCC/C=C/CO", 0),
    ("Cc1ccc([N+](=O)[O-])c(N)c1", 0),
    ("OCc1ccccc1O", 0),
]

*Q* Just curious, what result did N#CSCC(=O)O get here?
*A* 0

*Q* Just curious, what result did CN(C)CCOc1ccccc1Cc1ccccc1 get here?
*A* 0

*Q* Just curious, what result did c1ccc(CN(CC2=NCCN2)c2ccccc2)cc1 get here?
*A* 0

*Q* Just curious, what result did C[C@]12CCC(=O)C=C1CC[C@@H]1[C@@H]2CC[C@@]2(C)[C@H]1CC[C@]2(O)C(=O)CO get here?
*A* 0

*Q* Just curious, what result did O=c1[nH]cnc2c1ncn2[C@@H]1O[C@H](CO)[C@@H](O)[C@H]1O get here?
*A* 0

*Q* Just curious, what result did CCOC(=O)CS get here?
*A* 0

*Q* Just curious, what result did COc1ccc(Nc2ccc(OC)cc2)cc1 get here?
*A* 0

*Q* Just curious, what result did O=C1C=CC(=O)O1 get here?
*A* 0

*Q* Just curious, what result did Cc1cc(NS(=O)(=O)c2ccc(N)cc2)nc(C)n1 get here?
*A* 0

* * *

Measurement notes: A CellTox Green Cytotoxicity Assay to monitor cytotoxicity in HepG2 cells - 40 hour (AID 1224879); also: nearly all actives have a fitted effect of over 40% in size
Run parameters: CellTox Green fluorescence; series mostly up to 76.8 µM
Records with an inconclusive call do not appear. Calls of active or inactive are those of the source. Calls come from the whole dose curve; as a rule, active = well fitted activation curve with a large enough effect in the repeat runs; inconclusive = weak or mixed curves; inactive = flat fitted curve, though single readings scatter.
Please reply with one of these outcomes: active, inactive

*Q* Just curious, what result did CC(CNC1CCCCC1)OC(=O)c1ccccc1 (centres undefined) get here?
*A* inactive

* * *

Measurement notes: qHTS assay for identifying genotoxic compounds that show differential cytotoxicity against isogenic chicken DT40 cell lines with known DNA damage response pathways - wild type cell line (AID 743012); also: nearly all actives have a fitted effect of over 60% in size; also: potency is read from the fitted curve at half-maximal effect
Run parameters: DT40 wild type chicken cells viability, CellTiter-Glo, 40 h; series mostly up to 68.4 µM
Inconclusive results are not listed. Activity calls are given as the source filed them. The call rests on the fitted dose curve; in most records, active means well fitted cell-killing curve with a large enough effect in the repeat runs; inconclusive means weak or mixed curves, or effect the other way; inactive means no such curve, though single readings can be large or run the other way.
Recorded metric: Potency

Examples with answers:
# Compound, Obs value
records = [
    ("COc1nc(C)nc(NC(=O)NS(=O)(=O)c2ccccc2OCCCl)n1", "inactive"),
    ("CC(C)OC(C)C", "inactive"),
    ("O=C(O[C@@H](C(=O)O)[C@@H](OC(=O)c1ccccc1)C(=O)O)c1ccccc1", "inactive"),
    ("COc1ccc(S(=O)(=O)Nc2nnc(CC(C)C)s2)cc1", "inactive"),
    ("C[C@]12C(=O)OC(=O)[C@H]1[C@H]1C=C[C@@H]2C1", "inactive"),
    ("CC(C)C(=O)OCC(C)(C)C(O)C(C)C (stereo not drawn)", "inactive"),
    ("CCOC(=O)C(Br)c1ccccc1 (stereo not drawn)", "inactive"),
    ("COc1ccccc1OCC(O)COC(N)=O (stereo not drawn)", "inactive"),
]

*Q* So what does the record say about Potency for CC/C=C\CCOC(=O)CCCCC ?
*A* inactive

*Q* So what does the record say about Potency for CCCCOc1cc(C(=O)NCCN(CC)CC)c2ccccc2n1 ?
*A* 11.4 µM (active)

*Q* So what does the record say about Potency for CN(C)Cc1ccccc1 ?
*A* inactive

*Q* So what does the record say about Potency for COC(=O)c1ccc(OC)cc1 ?
*A* inactive

*Q* So what does the record say about Potency for CCCOCCC ?
*A* inactive

*Q* So what does the record say about Potency for CCCCCCCCCC#N ?
*A* inactive

*Q* So what does the record say about Potency for Clc1cccc(-c2cc(Cl)cc(Cl)c2)c1 ?
*A* inactive

*Q* So what does the record say about Potency for Cc1ccc([N+](=O)[O-])cc1Cl ?
*A* inactive

*Q* So what does the record say about Potency for CCc1nnc(NS(=O)(=O)c2ccc(N)cc2)s1 ?
*A* inactive

*Q* So what does the record say about Potency for CN(CCCN1c2ccccc2CCc2ccccc21)CC(=O)c1ccc(Cl)cc1 ?
*A* 9.44 µM (active)

*Q* So what does the record say about Potency for CCN(O)CC ?
*A* inactive

*Q* So what does the record say about Potency for CCOC(=O)[C@H](CCc1ccccc1)N[C@@H](C)C(=O)N1Cc2cc(OC)c(OC)cc2C[C@H]1C(=O)O ?
*A* inactive

*Q* So what does the record say about Potency for Cc1cc(NS(=O)(=O)c2ccc(N)cc2)nc(C)n1 ?
*A* inactive

*Q* So what does the record say about Potency for Cc1ccccc1C(=O)Nc1ccc(C(=O)N2CCCC(O)c3cc(Cl)ccc32)c(C)c1 (stereo not drawn) ?
*A* 26.6 µM (active)

*Q* So what does the record say about Potency for CCCCC1CCC(=O)O1 (stereo not drawn) ?
*A* inactive

Hello, the source for this data is PubChem BioAssay (Tox21), in case you need it.
